Assay: CellTiter-Blue cell viability (cytotoxicity), whole panel of cell lines
Assay type: cell-based
Settings: human; at the highest concentration; read-out: loss in cell viability
Experimental: Assay was performed at a 24 hour timepoint on 3 melanoma lines (A375, G-361, WM266-4) 2 breast cancer lines (MCF7, MDA-MB-231), fibroblast (46BR.1G1), colon cancer (HCT116), prostate cancer (PC-3), glioblastoma (U373) and non-small cell lung cancer (NSCLC) (DMS-114) The above cell lines were maintained in RPMI 1640 culture medium (Sigma, UK) containing 10% (v/v) heat inactivated foetal bovine serum (Sigma, UK) and 2 mM […] at 37° C. in 5% humidified CO2. […]
readout kind: cytotoxicity at 24 h, 62.5 µM

Short answer for CCCCCCC(C)(C)c1cc(O)c2c(c1)OC(C)(C)[C@H]1CC=C(CO)C[C@H]21 [Dexanabinol] : cytotoxicity at 24 h, 62.5 µM was 100%
